Measured values drawn from patent US6274715A for this set.

Overview of reported MIC across a group of compounds:
Tested on: ESCHERICHIA COLI H560
Experiment: In vitro antibacterial activity, MIC, BHI agar dilution
Format: cell-based
Conditions: E. coli H560, unit assumed
endpoint: MIC (µg/mL)

compound: CC[C@H]1OC(=O)[C@H](C)C(=O)[C@H](C)[C@@H](O[C@@H]2O[C@H](C)C[C@H](N(C)C)[C@H]2O)[C@](C)(OC)C[C@@H](C)C2=N[C@H](CO)CN3C(=O)O[C@@]1(C)[C@H]3[C@H]2C [Example 52]
valueRelationSign: =
experimentalResult: 50
--
compound: CC[C@H]1OC(=O)[C@H](C)C(=O)[C@H](C)[C@@H](O[C@@H]2O[C@H](C)C[C@H](N(C)C)[C@H]2O)[C@](C)(OC)C[C@@H](C)C2=N[C@H](COCc3ccccn3)CN3C(=O)O[C@@]1(C)[C@H]3[C@H]2C [Example 81]
valueRelationSign: =
experimentalResult: 50
--
compound: CC[C@H]1OC(=O)[C@H](C)C(=O)[C@H](C)[C@@H](O[C@@H]2O[C@H](C)C[C@H](N(C)C)[C@H]2O)[C@](C)(OC)C[C@@H](C)C2=NC[C@H](Cc3ccccc3)N3C(=O)O[C@@]1(C)[C@H]3[C@H]2C [Example 5]
valueRelationSign: =
experimentalResult: 3.1
--
compound: CC[C@H]1OC(=O)[C@H](C)C(=O)[C@H](C)[C@@H](O[C@@H]2O[C@H](C)C[C@H](N(C)C)[C@H]2O)[C@](C)(OC)C[C@@H](C)C2=NC[C@H](COC(=O)c3ccncc3)N3C(=O)O[C@@]1(C)[C@H]3[C@H]2C [Example 138]
valueRelationSign: =
experimentalResult: 50
--
compound: CC[C@H]1OC(=O)[C@H](C)C(=O)[C@H](C)[C@@H](O[C@@H]2O[C@H](C)C[C@H](N(C)C)[C@H]2O)[C@](C)(OC)C[C@@H](C)C2=NC[C@H](CCCc3ccccc3)N3C(=O)O[C@@]1(C)[C@H]3[C@H]2C [Example 40]
valueRelationSign: =
experimentalResult: 25
--
compound: CCC1OC(=O)C(C)C(=O)C(C)C(OC2OC(C)CC(N(C)C)C2O)C(C)(OC)CC(C)C2=NC(CN3CCCCC3)CN3C(=O)OC1(C)C3C2C (stereo not drawn) [Example 96]
valueRelationSign: =
experimentalResult: 12.5
--
compound: CC[C@H]1OC(=O)[C@H](C)C(=O)[C@H](C)[C@@H](O[C@@H]2O[C@H](C)C[C@H](N(C)C)[C@H]2O)[C@](C)(OC)C[C@@H](C)C2=NC3CN(CCc4ccccc4[N+](=O)[O-])CC3N3C(=O)O[C@@]1(C)[C@H]3[C@H]2C (stereo partly drawn) [Example 119]
valueRelationSign: >
experimentalResult: 100
--
compound: CC[C@H]1OC(=O)[C@H](C)C(=O)[C@H](C)[C@@H](O[C@@H]2O[C@H](C)C[C@H](N(C)C)[C@H]2O)[C@](C)(OC)C[C@@H](C)C2=N[C@H](CN3CCN(C)CC3)CN3C(=O)O[C@@]1(C)[C@H]3[C@H]2C [Example 93]
valueRelationSign: =
experimentalResult: 100
--
compound: CC[C@H]1OC(=O)[C@H](C)C(=O)[C@H](C)[C@@H](O[C@@H]2O[C@H](C)C[C@H](N(C)C)[C@H]2O)[C@](C)(OC)C[C@@H](C)C2=NC3CN(Cc4ccccc4)CC3N3C(=O)O[C@@]1(C)[C@H]3[C@H]2C (stereo partly drawn) [Example 110]
valueRelationSign: =
experimentalResult: 12.5
